Reported pIC50 by item:
# TARGET OR TEST SYSTEM: UniProt:P47871
# Sequence (P47871 whole entry): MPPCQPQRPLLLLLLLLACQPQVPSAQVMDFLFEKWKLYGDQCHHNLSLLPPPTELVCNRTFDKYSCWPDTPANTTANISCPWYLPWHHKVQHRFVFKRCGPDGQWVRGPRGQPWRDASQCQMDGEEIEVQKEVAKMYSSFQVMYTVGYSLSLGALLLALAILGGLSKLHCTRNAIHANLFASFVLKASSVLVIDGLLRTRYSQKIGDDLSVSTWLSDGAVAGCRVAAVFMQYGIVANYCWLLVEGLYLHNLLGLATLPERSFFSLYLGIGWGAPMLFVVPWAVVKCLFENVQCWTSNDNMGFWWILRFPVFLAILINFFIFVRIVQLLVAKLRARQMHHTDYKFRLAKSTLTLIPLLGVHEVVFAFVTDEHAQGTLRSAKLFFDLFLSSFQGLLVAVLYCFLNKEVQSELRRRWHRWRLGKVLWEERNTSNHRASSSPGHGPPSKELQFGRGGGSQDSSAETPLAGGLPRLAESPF
# METHOD NOTES: Antagonist activity at human glucagon receptor expressed in BHK21 cells assessed as inhibition of glucagon-induced cAMP elevation by RIA
Bridge positions count the residues as written; N and C are the ends. Peptide text beside a SMILES is read from it.
Lab note — pIC50 values are minus log10 of concentrations in M.

CC[C@H](C)[C@@H]1NC(=O)[C@@H]2CC(=O)NCC(=O)N[C@@H](CC(C)C)C(=O)N3CCC[C@H]3C(=O)N[C@@H](Cc3c[nH]c4ccccc34)C(=O)NCC(=O)N[C@@H](CSSC[C@@H](C(=O)O)NC(=O)[C@H](C)NC(=O)[C@H](Cc3c[nH]c4ccccc34)NC(=O)[C@@H]3CCCN3C(=O)[C@H]([C@@H](C)O)NC(=O)[C@H](CC(N)=O)NC(=O)[C@H](Cc3c[nH]c4ccccc34)NC(=O)CNC(=O)[C@@H]3CCCN3C1=O)C(=O)N1CCC[C@H]1C(=O)N[C@@H](CO)C(=O)N2 (GLPWGCPSDIPGWNTPWAC-OH; disulfide 6-19; lactam N-9) ... 6.36

*Q* Entry under review: CC1CC(=O)c2c(cc3c(-c4c(O)cc(O)c5c(O)c6c(cc45)OC(C)CC6=O)c(O)cc(O)c3c2O)O1 (configuration not stated) . Reported pIC50?
*A* 4.70

Measured values drawn from ChEMBL document CHEMBL1148896 for this set.
